test: Levels in rat plasma after po administration; assay type: in vivo; details: 15 min after po administration of 1 mg/Kg
assay_endpoint: concentration at 15 min (ng/mL)

a = CCC(=O)NCC[C@@H]1CCc2ccc(OC)cc21
b = COc1ccc2c(c1)C(CCNC(C)=O)CO2 (centres unmarked) [Example 1]
Would you kindly point out which of a and b has the smaller concentration at 15 min figure? Give the chosen item's label as your response. a

Just for reference, patent US20120059053A1 is where these values come from.
